- Tested on: A549
- Measurement protocol: Antiproliferative activity against human A549 cells measured after 24 hrs by CCK8 assay
- Assay type: functional, cell-based
- Stated conditions: A549, 24 h
Field: pIC50. Provide a value for each of the compounds that follow.
One number for each entry, as −log10 of the molar value.

O=C(C1=CC[C@@H](c2ccc(Cl)cc2)[C@@]2(S1)C(=O)Nc1ccccc12)c1ccccc1 :: 5.41
COc1ccc(C(=O)C2=CC[C@@H](c3ccccc3)[C@@]3(S2)C(=O)Nc2cccc(Br)c23)cc1 :: 5.22
COc1ccc(C(=O)C2=CC[C@@H](c3ccc([N+](=O)[O-])cc3)[C@@]3(S2)C(=O)Nc2cccc(Br)c23)cc1 :: 4.86
O=C(C1=CC[C@@H](c2ccccc2)[C@@]2(S1)C(=O)Nc1cccc(Br)c12)c1ccc(Br)cc1 :: 5.48
CC[C@@H]1CC=C(C(=O)c2ccc(OC)cc2)S[C@@]12C(=O)Nc1cccc(Br)c12 :: 4.99

Look up pIC50 for the entries below, preserving their order.
1. O=C(C1=CC[C@@H](c2ccccc2)[C@@]2(S1)C(=O)Nc1ccccc12)c1ccccc1
2. O=C(C1=CC[C@@H](c2ccc(F)cc2)[C@@]2(S1)C(=O)Nc1ccccc12)c1ccccc1
3. O=C(C1=CC[C@@H](c2ccccc2)[C@@]2(S1)C(=O)Nc1ccc(F)cc12)c1ccccc1

Ans.
1: 5.20; 2: 5.20; 3: 5.37
